Molecular target: PI3Kγ (p110γ) Recombinant Human Protein (Homo sapiens (Human), UniProt P48736)
Sequence (P48736 whole entry): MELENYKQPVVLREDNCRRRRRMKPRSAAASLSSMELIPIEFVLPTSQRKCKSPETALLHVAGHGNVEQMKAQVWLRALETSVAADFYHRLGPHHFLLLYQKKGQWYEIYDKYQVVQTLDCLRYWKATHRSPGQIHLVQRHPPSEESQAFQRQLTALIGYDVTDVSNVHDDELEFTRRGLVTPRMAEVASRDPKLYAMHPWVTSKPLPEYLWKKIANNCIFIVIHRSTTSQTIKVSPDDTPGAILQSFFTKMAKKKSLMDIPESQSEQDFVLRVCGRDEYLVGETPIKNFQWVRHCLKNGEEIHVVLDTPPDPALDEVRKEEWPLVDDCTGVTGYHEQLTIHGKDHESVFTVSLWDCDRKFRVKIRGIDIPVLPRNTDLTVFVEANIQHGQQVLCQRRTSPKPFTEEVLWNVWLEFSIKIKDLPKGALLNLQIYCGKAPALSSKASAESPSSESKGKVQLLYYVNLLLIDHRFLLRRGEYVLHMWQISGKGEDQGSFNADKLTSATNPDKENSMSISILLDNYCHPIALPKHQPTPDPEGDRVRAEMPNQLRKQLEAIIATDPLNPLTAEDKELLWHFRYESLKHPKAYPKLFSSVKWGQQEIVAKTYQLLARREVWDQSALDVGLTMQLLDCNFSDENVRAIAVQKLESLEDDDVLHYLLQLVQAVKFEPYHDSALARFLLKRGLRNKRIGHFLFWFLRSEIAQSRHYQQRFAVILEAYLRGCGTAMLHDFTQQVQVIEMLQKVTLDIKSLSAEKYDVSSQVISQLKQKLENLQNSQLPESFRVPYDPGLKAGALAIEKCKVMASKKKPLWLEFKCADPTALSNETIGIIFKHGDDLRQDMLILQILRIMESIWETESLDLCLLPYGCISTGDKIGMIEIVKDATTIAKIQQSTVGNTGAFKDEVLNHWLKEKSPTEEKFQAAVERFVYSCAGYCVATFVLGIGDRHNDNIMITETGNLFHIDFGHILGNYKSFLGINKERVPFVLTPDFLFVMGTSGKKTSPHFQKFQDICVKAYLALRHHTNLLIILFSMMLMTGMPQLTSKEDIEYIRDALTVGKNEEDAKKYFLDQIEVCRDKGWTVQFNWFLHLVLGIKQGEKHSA
Assay: PI3K-γ Scintillation Proximity Assay
Format: biochemical
Details: read-out: PI3Kγ IC50
pIC50: −log10 of the molar value. Counter-ions that a name gives are not always drawn.
VALUE_TYPE: pIC50

Some solved entries appear below for comparison.
In [3]: df
Out[3]:
                                   compound  observed_measurement
0  Cc1ccc(S(=O)(=O)NC23CCC(CC2)CC3)cc1-c1cnc2c(N)ncnn12 [Example 181, trifluoroacetate salt]                > 7.00
1  Cc1ccc(S(=O)(=O)N2CCC[C@H]2CO)cc1-c1cnc2c(N)nc(C(F)(F)F)nn12 [Example 347]                > 7.00
2  Cc1ccc(S(=O)(=O)N2CCN3CCCC3C2)cc1-c1cnc2c(N)ncnn12 (centres unmarked) [Example 198]          6.30 to 7.00
3  Cc1ccc(S(=O)(=O)NC23CC(C#N)(C2)C3)cc1-c1cnc2c(N)ncnn12 [Example 250]                > 7.00
4  Cc1ccc(S(=O)(=O)N[C@H]2CC[C@H](O)CC2)cc1-c1cnc2c(N)nccn12 [Example 13]                > 7.00
5  Cc1ccc(S(=O)(=O)NC2(C)CN(C)C2)cc1-c1cnc2c(N)nc(C(F)(F)F)nn12 [Example 532]                > 7.00
6  Cc1ccc(S(=O)(=O)N2CCCC(CNC(=O)CN(C)C)C2)cc1-c1cnc2c(N)nc(C(F)(F)F)cn12 (centres unmarked) [Example 514]          6.30 to 7.00
7  C[C@]1(O)CC[C@H](NS(=O)(=O)c2cc(-c3cnc4c(N)ncnn34)ccc2F)CC1 [Example 376]                > 7.00
8  Cc1nc(N)c2ncc(-c3cc(S(=O)(=O)NCC4(O)CCC4)ccc3C)n2n1 [Example 269, trifluoroacetate salt]                > 7.00
9  Cc1ccc(S(=O)(=O)N[C@H]2CC[C@H](O)CC2)cc1-c1cnc2c(N)nc(-c3ccc(C(C)O)cc3F)cn12 (some centres unmarked) [Example 82]                > 7.00

Pending compound:
Q) Query pIC50 on PI3Kγ (p110γ) Recombinant Human Protein (Homo sapiens (Human), UniProt P48736) for Cc1ccc(S(=O)(=O)NCC2(F)COC2)cc1-c1cnc2c(N)nc(C(F)(F)F)nn12 [Example 315, trifluoroacetate salt]
A) > 7.00
